# Assayed system: ABCB1 (Homo sapiens)
# Sequence (P08183 whole entry): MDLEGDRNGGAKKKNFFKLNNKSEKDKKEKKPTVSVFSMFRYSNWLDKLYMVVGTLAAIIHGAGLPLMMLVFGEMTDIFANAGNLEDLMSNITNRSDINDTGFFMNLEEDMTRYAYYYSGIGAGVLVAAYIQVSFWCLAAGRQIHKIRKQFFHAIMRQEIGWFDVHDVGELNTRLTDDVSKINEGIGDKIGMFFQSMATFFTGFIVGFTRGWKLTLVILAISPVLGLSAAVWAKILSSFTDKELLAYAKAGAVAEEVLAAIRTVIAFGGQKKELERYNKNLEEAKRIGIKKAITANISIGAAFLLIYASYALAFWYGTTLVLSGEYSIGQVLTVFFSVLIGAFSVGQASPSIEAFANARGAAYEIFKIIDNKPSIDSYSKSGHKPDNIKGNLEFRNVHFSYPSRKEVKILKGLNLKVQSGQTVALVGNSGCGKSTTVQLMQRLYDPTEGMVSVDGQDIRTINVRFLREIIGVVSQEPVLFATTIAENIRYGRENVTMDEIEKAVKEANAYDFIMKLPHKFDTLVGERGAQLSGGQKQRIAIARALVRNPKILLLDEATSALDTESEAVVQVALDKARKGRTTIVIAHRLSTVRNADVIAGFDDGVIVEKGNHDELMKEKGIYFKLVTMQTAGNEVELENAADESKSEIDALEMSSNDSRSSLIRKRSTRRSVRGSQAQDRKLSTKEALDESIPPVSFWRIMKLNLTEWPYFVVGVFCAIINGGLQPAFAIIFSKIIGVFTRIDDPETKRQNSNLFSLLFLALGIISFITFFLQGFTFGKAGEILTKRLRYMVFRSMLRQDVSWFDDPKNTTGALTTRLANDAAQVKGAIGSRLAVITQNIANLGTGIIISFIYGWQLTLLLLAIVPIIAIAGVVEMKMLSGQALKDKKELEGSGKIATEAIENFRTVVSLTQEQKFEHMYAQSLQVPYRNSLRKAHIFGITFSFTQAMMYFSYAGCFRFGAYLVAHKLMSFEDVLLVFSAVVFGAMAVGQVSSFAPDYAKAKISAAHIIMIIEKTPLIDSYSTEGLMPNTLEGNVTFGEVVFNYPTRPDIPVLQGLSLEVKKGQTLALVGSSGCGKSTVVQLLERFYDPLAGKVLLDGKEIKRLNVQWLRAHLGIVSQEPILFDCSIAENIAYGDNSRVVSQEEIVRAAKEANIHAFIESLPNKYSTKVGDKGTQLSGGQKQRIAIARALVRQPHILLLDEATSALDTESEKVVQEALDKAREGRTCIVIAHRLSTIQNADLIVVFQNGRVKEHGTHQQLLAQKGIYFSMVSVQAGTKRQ
pIC50: −log10 of the molar value.
Test readout: pIC50

1) O=S(=O)(NCCNCC=Cc1ccc(Br)cc1)c1cccc2cnccc12 [H89] | 6.61

###

# Tested on: HCT-8/V cells
# Experimental details: Cytotoxicity assay (MTT, 72 h)
# Type: cell-based, human
# Measurement conditions: chemotherapeutic drug alone, 72 h MTT
Test readout: IC50

1) O=C1[O][Pt]2([NH][C@@H]3CCCC[C@H]3[NH]2)[O]C1=O [Oxaliplatin, oxaliplatin] | 10.1 µM
